target or system: UniProt:P55085
Sequence (P55085 26-397): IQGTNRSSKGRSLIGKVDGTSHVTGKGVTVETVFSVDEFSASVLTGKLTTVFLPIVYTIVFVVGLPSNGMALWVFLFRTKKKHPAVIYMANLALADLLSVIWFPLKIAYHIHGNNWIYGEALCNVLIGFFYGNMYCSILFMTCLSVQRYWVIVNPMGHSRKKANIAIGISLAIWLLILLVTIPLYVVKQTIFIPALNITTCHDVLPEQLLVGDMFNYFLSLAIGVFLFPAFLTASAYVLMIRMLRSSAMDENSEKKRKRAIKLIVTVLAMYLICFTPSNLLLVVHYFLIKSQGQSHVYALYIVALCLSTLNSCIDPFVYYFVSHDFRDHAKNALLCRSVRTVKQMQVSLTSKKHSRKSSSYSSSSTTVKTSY
test: Trypsin activated FLPR Ca2+ mobilization assay for PAR2 antagonist activity
Type: cell-based
particulars: hPAR2 FLPR (Trypsin) IC50 (μM), 1321N1 cells stably expressing human PAR2; agonist Trypsin; Vorapaxar present to block PAR1
Protocol: Trypin Activated FLPR Assay: Protocol for Testing Compounds for PAR2 Antagonist Activity Using a Ca2+ Mobilization Assay Calcium mobilization was measured using 1321N1 cells stably expressing human PAR2. […] The addition was done using a FLIPR^TETRA (384-well head, Molecular Devices) and the response was read simultaneously to detect any agonist activity.
Exam item: assign rule met to entries whose IC50 is below 5 µM and rule not met to entries at or above 5 µM. Note that a value of exactly 5 µM receives rule not met.

molecule	target or system	group label
CCc1coc2c(F)ccc([C@@H](O)c3ncc[nH]3)c12 (single isomer, unassigned) [Example 41]	UniProt:P55085	rule met
OC(c1ncc[nH]1)c1ccc(F)cc1N1CC2CC2C1 (stereo not drawn) [Example 30]	UniProt:P55085	rule not met
CC(C)c1ccc2c(F)ccc(C(O)c3ncc[nH]3)n12 (stereo not drawn) [Example 38]	UniProt:P55085	rule not met
CCc1coc2c(F)ccc([C@H](O)c3ncc[nH]3)c12 (single isomer, unassigned) [Example 42]	UniProt:P55085	rule met
CCCc1c(Cl)cccc1C(O)c1ncc[nH]1 (stereo not drawn) [Example 13]	UniProt:P55085	rule not met
